# test.conditions: human; liver_microsomes
Reported microsomal CLint values for a set of compounds

1. CC(C)[C@H](Nc1ncnc2[nH]c(-c3ccc4cncn4c3)cc12)c1ccc2c(c1)S(=O)(=O)CCC2 (racemic)    210 µL/min/mg
2. Cc1cc(-c2noc(C(F)(F)F)n2)ccc1OCCCc1cc(C(=O)N(C)C)no1    11 µL/min/mg
3. COc1ccc(C(=O)Nc2cccc(/C=C3/C(=O)NC(=O)c4ccccc43)c2)cc1    180 µL/min/mg

INPUT: Dear colleague, I am looking for the recorded microsomal CLint of the following compound: "CCOc1cccc(-c2ccc(S(=O)(=O)Nc3ccc(Cl)cc3C(=O)O)cc2)c1"
OUTPUT: 119 µL/min/mg

INPUT: Now try CC(C)[C@H](Nc1ncnc2[nH]c(-c3cnn(CCC(N)=O)c3)cc12)c1ccc2c(c1)OCCO2 (racemic) .
OUTPUT: 99 µL/min/mg

INPUT: Now try "O=C(O)c1cc(Cl)ccc1S(=O)(=O)NC1CCN(c2nc(C3CC3)cc(C(F)(F)F)n2)CC1" .
OUTPUT: 26.3 µL/min/mg

INPUT: Now try CC(C)[C@H](Nc1ncnc2[nH]c(-c3cnn(CC(N)=O)c3)cc12)c1ccc2c(c1)NC(=O)CO2 (racemic) .
OUTPUT: 17 µL/min/mg

INPUT: Now try O=C(N[C@H]1[C@H]2CCCCC[C@H]2[C@H]1C(=O)Nc1cccc(C2CCNCC2)c1)OCc1ccccc1 (racemic) .
OUTPUT: 31.3 µL/min/mg

INPUT: Now try CC(C)[C@H](Nc1ncnc2[nH]c(-c3cncc(S(C)(=O)=O)c3)cc12)c1ccc2c(c1)S(=O)(=O)CCC2 (racemic) .
OUTPUT: 635 µL/min/mg

INPUT: Now try "NCc1cccc(NC(=O)CN(C(=O)OCc2ccccc2)c2ccc(OCc3ccccc3)cc2)c1" .
OUTPUT: 11 µL/min/mg

INPUT: Now try N#C[C@H](Nc1cccc(C(=O)O)c1)c1cc(Cl)cc2[nH]ncc12 (racemic) .
OUTPUT: 12 µL/min/mg

INPUT: Now try "O=C(Nc1cc(Cl)cc(C(=O)Nc2cccc(-n3nn[nH]c3=O)c2)c1)OCc1ccccc1" .
OUTPUT: 11.2 µL/min/mg

INPUT: Now try O=C(Nc1ccccc1)Nc1ccc(C(=O)NC2c3cccc(O)c3CC2C(=O)O)cc1 (stereo not drawn) .
OUTPUT: 9 µL/min/mg

INPUT: Now try CNC(=O)c1c[nH]c2ncnc(N[C@H](c3ccc4c(c3)S(=O)(=O)CCC4)C(C)C)c12 (racemic) .
OUTPUT: 131 µL/min/mg

INPUT: Now try COc1ccc([C@H](CC(=O)O)NC(=O)c2ncnc3[nH]ccc23)cc1 (racemic) .
OUTPUT: 7 µL/min/mg

INPUT: Now try "O=C(Nc1cc(Br)c2c(c1)CNC2)c1cc(F)cc2[nH]ncc12" .
OUTPUT: 13.6 µL/min/mg

INPUT: Now try "c1ccc2sc(C3CCN(Cc4c[nH]c5ccccc45)CC3)nc2c1" .
OUTPUT: 38.1 µL/min/mg

INPUT: Now try CNC(=O)[C@H](Nc1cc(Cl)cc(NC(=O)OCc2ccccc2)c1)c1cccc(-c2nn[nH]n2)c1 (racemic) .
OUTPUT: 21.3 µL/min/mg

INPUT: Now try CC(C)NC(=O)[C@H](Nc1ccc2c(c1)CNC2)c1cc(Cl)cc2[nH]c(-c3ccccc3)nc12 (racemic) .
OUTPUT: 23.2 µL/min/mg
